- System: Normal Human Dermal Papilla Cells
- assay-notes: DNA synthesis ([H]3-thymidine incorporation) in dermal papilla cells
- Format: cell-based
- condition-label: 0.5 mM
measured-property: % increase compared to control (thymidine uptake / DNA synthesis)
Report the figure along with its unit, number first.

Look over these answered cases.
Nc1ncnc2c1ncn2[C@@H]1O[C@H](COP(=O)(O)OP(=O)(O)OP(=O)(O)O)[C@@H](O)[C@H]1O	1201%
Nc1ncnc2c1ncn2[C@@H]1O[C@H](COP(=O)(O)O)[C@@H](O)[C@H]1O	1930%
O=C(O)CC(=O)C(=O)O [Oxaloacetate, oxaloacetic acid (oxaloacetate)]	33%

Please examine the following record next.
Consider "CN(CC(=O)O)C(=N)N" . Its measured % increase compared to control (thymidine uptake / DNA synthesis) is 24.78%

---

- Tested on: Normal Human Dermal Papilla Cells
- assay-notes: DNA synthesis ([H]3-thymidine incorporation) in dermal papilla cells
- Type: cell-based
- condition-label: 0.25 mM
measured-property: % increase compared to control (thymidine uptake / DNA synthesis)
Report the figure along with its unit, number first.

Look over these answered cases.
Nc1ncnc2c1ncn2[C@@H]1O[C@H](COP(=O)(O)OP(=O)(O)OP(=O)(O)O)[C@@H](O)[C@H]1O	1411%
Nc1ncnc2c1ncn2[C@@H]1O[C@H](COP(=O)(O)O)[C@@H](O)[C@H]1O	1493%
O=C(O)CC(=O)C(=O)O [Oxaloacetate, oxaloacetic acid (oxaloacetate)]	22%

Please examine the following record next.
Let me check: "CN(CC(=O)O)C(=N)N" , system Normal Human Dermal Papilla Cells, measured % increase compared to control (thymidine uptake / DNA synthesis) is 35.66%
